Provide the reported MIC Spn52 of each item.
# Test system: S. pneumoniae ATCC 51916
# Assay details: MIC, S. pneumoniae
# Format: cell-based
# Measurement context: S. pneumoniae
Hi! Could you send only the number? It should be in µg/mL, unit omitted.

Name the recorded MIC Spn52 for CCc1[nH]c2nc(Sc3ccc4cc(C#N)cnc4c3)nc(N3CC(CN)C3)c2c1Cl .
2

For the compound shown here, CCc1[nH]c2nc(Sc3cnc4nccnc4c3)nc(N3CC4C(C3)C4NC(=N)N)c2c1Cl (stereo not shown) , give the reported MIC Spn52.
8

# query: MIC Spn52 of entry CCOc1nc(Sc2cnc3cccnc3n2)nc2[nH]c(CC)c(Br)c12
2

# input compound: CCc1[nH]c2nc(Sc3cnc4nccnc4c3)nc(N3CCC(N4CCN(C)CC4)C3)c2c1Cl.O=C(O)C(F)(F)F.O=C(O)C(F)(F)F (stereo not shown) ; wanted: its MIC Spn52
8

So what's the measured MIC Spn52 for this one? CCc1[nH]c2nc(Sc3cnc4nccnc4c3)nc(N3CC(C(N)=O)C3)c2c1Cl.O=C(O)C(F)(F)F
16

# input compound: CCc1[nH]c2nc(Oc3cnc4c(cnn4C)c3)nc(Oc3cnc4c(cnn4C)c3)c2c1Cl ; wanted: its MIC Spn52
16

Given the compound CCc1[nH]c2nc(Sc3cc(=O)n(C)c(=O)[nH]3)nc(N3CC(N)C3)c2c1Br.O=C(O)C(F)(F)F , what is its reported MIC Spn52?
4

MIC Spn52 lookup needed for CCc1[nH]c2nc(Oc3cccnc3)nc(Oc3cccnc3)c2c1Br.O=C(O)C(F)(F)F , thanks.
2

Consider the compound shown here: CCOc1nc(Oc2ccc3[nH]ccc3c2)nc2[nH]c(CC)c(Cl)c12.O=C(O)C(F)(F)F What is its recorded MIC Spn52?
64
